- System: A549

compound | qualifying-sign | GI50, µM
CCCCCCCCc1ccc(NC(=O)NC2(CC(=O)O)CNC2)cc1 [Example S23, 2,2,2-trifluoroacetate] | > | 50
CCCCCCCCc1ccc(NC(=O)NC2(CC(=O)O)C[N+](C)(C)C2)cc1 [Example S24, 2,2,2-trifluoroacetate] | = | 36
CCCCCCCCc1ccc(NS(=O)(=O)NC2(CC(=O)O)CCCN(C)C2)cc1 (stereo not shown) [Example S15, 2,2,2-trifluoroacetate] | = | 7.5
CCCCCCCCc1ccc(NS(=O)(=O)NC2(CC(=O)O)CCN(C)CC2)cc1 [Example S7, 2,2,2-trifluoroacetate] | = | 52
CCCCCCCCc1ccc(NS(=O)(=O)NC2(CC(=O)O)CCC[N+](C)(C)C2)cc1 (stereo not shown) [Example S16, 2,2,2-trifluoroacetate] | = | 6.2
CCCCCc1ccc(S(=O)(=O)NC2(CC(=O)O)C[N+](C)(C)C2)cc1 [Example S29, 2,2,2-trifluoroacetate] | > | 50
CCCCCCCCc1ccc(NS(=O)(=O)NC2(CC(=O)O)CC[N+](C)(C)CC2)cc1 [Example S8, 2,2,2-trifluoroacetate] | = | 10

The measurements presented in this section are drawn from patent US8680282B2.
